Test system: COR-L 105
Assay: relative viability (nuclei count vs DMSO), 5 days (fraction); higher = more cells survive
Conditions: first compound 5 µM
Note to self: use YES only for relative viability readings below 0.4; a reading exactly at 0.4 still gets NO.

Completed entries (count: 7):
O=C(O)CCCCC(CCSCc1ccccc1)SCc1ccccc1 (stereo not drawn) [CPI-613] + Nc1nc2[nH]cc(CCc3ccc(C(=O)N[C@@H](CCC(=O)O)C(=O)O)cc3)c2c(=O)[nH]1 [Pemetrexed] (partner 0.2 µM) ... NO
O=C(O)CCCCC(CCSCc1ccccc1)SCc1ccccc1 (stereo not drawn) [CPI-613] + N=C(N)NC(=N)NCCc1ccccc1 [Phenformin] (partner 250 µM) ... NO
O=C(O)CCCCC(CCSCc1ccccc1)SCc1ccccc1 (stereo not drawn) [CPI-613] + CS(=O)(=O)CCNCc1ccc(-c2ccc3ncnc(Nc4ccc(OCc5cccc(F)c5)c(Cl)c4)c3c2)o1 [Lapatinib] (partner 2 µM) ... YES
O=C(O)CCCCC(CCSCc1ccccc1)SCc1ccccc1 (stereo not drawn) [CPI-613] + O=C(c1cc(Cc2n[nH]c(=O)c3ccccc23)ccc1F)N1CCN(C(=O)C2CC2)CC1 [Olaparib] (partner 8 µM) ... NO
O=C(O)CCCCC(CCSCc1ccccc1)SCc1ccccc1 (stereo not drawn) [CPI-613] + C[C@@H](Oc1cc(-c2cnn(C3CCNCC3)c2)cnc1N)c1c(Cl)ccc(F)c1Cl [Crizotinib] (partner 1 µM) ... NO
O=C(O)CCCCC(CCSCc1ccccc1)SCc1ccccc1 (stereo not drawn) [CPI-613] + Nc1ncn([C@H]2C[C@H](O)[C@@H](CO)O2)c(=O)n1 [Decitabine] (partner 2 µM) ... NO
O=C(O)CCCCC(CCSCc1ccccc1)SCc1ccccc1 (stereo not drawn) [CPI-613] + CC1(C)CCC(c2ccc(Cl)cc2)=C(CN2CCN(c3ccc(C(=O)NS(=O)(=O)c4ccc(N[C@H](CCN5CCOCC5)CSc5ccccc5)c(S(=O)(=O)C(F)(F)F)c4)cc3)CC2)C1 [Navitoclax] (partner 0.5 µM) ... NO

Continue with the molecule presented below.
Inquiry: Item O=C(O)CCCCC(CCSCc1ccccc1)SCc1ccccc1 (stereo not drawn) [CPI-613] + Cc1cc(Nc2cc(N3CCN(C)CC3)nc(Sc3ccc(NC(=O)C4CC4)cc3)n2)n[nH]1 [Tozasertib] (partner 0.1 µM) : relative viability beneath 0.4, strictly?
Reply text: YES

---

Consider the following compounds and their measured relative viability readings.
System: NCI-H3122
Test: relative viability (nuclei count vs DMSO), 5 days (fraction); higher = more cells survive
Conditions: first compound 0.253 µM
Could you keep your reply to the number by itself?

O=c1[nH]c2ccccc2n1C1CCN(CCCC(c2ccc(F)cc2)c2ccc(F)cc2)CC1 [Pimozide] + O=C(CCCCCCC(=O)Nc1ccccc1)NO [Vorinostat] (partner 1 µM) ... 0.951
Cc1cnc(-c2cnc(NCCNc3ccc(C#N)cn3)nc2-c2ccc(Cl)cc2Cl)[nH]1 + CS(=O)(=O)N1CCN(Cc2cc3nc(-c4cccc5[nH]ncc45)nc(N4CCOCC4)c3s2)CC1 [Pictilisib] (partner 1 µM) ... 0.64

Inquiry: State measured relative viability of the compound O=c1[nH]c2ccccc2n1C1CCN(CCCC(c2ccc(F)cc2)c2ccc(F)cc2)CC1 [Pimozide] + CS(=O)(=O)CCNCc1ccc(-c2ccc3ncnc(Nc4ccc(OCc5cccc(F)c5)c(Cl)c4)c3c2)o1 [Lapatinib] (partner 2 µM) with NCI-H3122.
Reply text: 1

Inquiry: State measured relative viability of the compound Cc1cnc(-c2cnc(NCCNc3ccc(C#N)cn3)nc2-c2ccc(Cl)cc2Cl)[nH]1 + C[C@]1(O)C[C@@H](c2nc(-c3ccc4ccc(-c5ccccc5)nc4c3)c3c(N)nccn32)C1 [Linsitinib] (partner 1 µM) with NCI-H3122.
Reply text: 0.949

Inquiry: State measured relative viability of the compound O=c1[nH]c2ccccc2n1C1CCN(CCCC(c2ccc(F)cc2)c2ccc(F)cc2)CC1 [Pimozide] + CC(=O)c1c(C)c2cnc(Nc3ccc(N4CCNCC4)cn3)nc2n(C2CCCC2)c1=O [Palbociclib] (partner 0.5 µM) with NCI-H3122.
Reply text: 0.176

# credit: the supplement of paper PMC10307832
